# measurement_protocol: viability loss in pontine glioma line – cell-based, SU-DIPG-XIII, MIPE5.0, CellTiter-Glo, qHTS, dose response (AID 1347064);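 on AC50: cells exposed to compound for 48 hours before the viability read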
# stated_conditions: CellTiter-Glo ATP luminescence
Inconclusive results are not listed. The source made the active and inactive calls. Cut-off not given; nearly all actives show AC50 up to about 23 µM.
metric_name: AC50

Look over these answered cases.
Give the measured AC50 of CCN1C(=O)CNc2ncc(-c3ccc(-c4ncn[nH]4)nc3C)nc21 .
4.17 µM (active)

Note, next up: CC[C@H](Nc1ncnc2nc[nH]c12)c1nc2cccc(F)c2c(=O)n1-c1ccccc1
inactive

Note, next up: NS(=O)(=O)Oc1ccc2c3c(c(=O)oc2c1)CCCCC3
inactive

Note, next up: O=C(c1ccc(C(=O)N2CCC(N3CCCC3)CC2)c(Nc2ccccc2)c1)N1CCC(N2CCCC2)CC1
inactive

Note, next up: C=C1CCC2[C@](C)(CO)C(O)CC[C@]2(C)C1C/C=C1/C(=O)OCC1O (stereo not given in full)
16.6 µM (active)

Note, next up: c1cc(-c2cnn3cc(-c4ccc(N5CCNCC5)cc4)cnc23)c2cccnc2c1
6.61 µM (active)

Note, next up: O=C(NCc1ccccc1)c1csc(Nc2ccncn2)n1
14.8 µM (active)

Note, next up: CNc1nc(-c2ccc3c(N)n[nH]c3c2)cc(N2C[C@@H](C(=O)NC3CCCCC3)CC[C@H]2C)n1
18.6 µM (active)

Note, next up: COc1ccc(-c2oc3c(CC=C(C)C)c(O)cc(O)c3c(=O)c2O)cc1
16.6 µM (active)

Moving on to the next compound.
Give the measured AC50 of Cn1cc(-c2[nH]c3cc(NC(=O)[C@H](N)C4CCCCC4)cc4c3c2C=NNC4=O)cn1 .
2.09 µM (active)

----------
# measurement_protocol: viability loss in pontine glioma line – cell-based, JHH-DIPG-1, MIPE4.0, CellTiter-Glo, qHTS, dose response (AID 1347062);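 on AC50: cells exposed to compound for two days before readout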
# stated_conditions: JHH-DIPG-1 viability, CellTiter-Glo ATP luminescence
Records with an inconclusive call do not appear. Activity calls are given as the source filed them. The limit is not given here; nearly all actives have AC50 up to about 27 µM.
Hi there, use one of these labels in your reply, thanks! class 1 (active), class 0 (inactive)

Could you please tell me the result logged for CCC[C@H](NC(=O)/C(C#N)=C/c1cccc(Br)n1)c1ccccc1 in this assay?
class 1

Note, next up: COc1ccc(S(=O)(=O)Nc2cc(-c3c(O)ccc4ccccc34)c(O)c3ccccc23)cc1
class 1

Note, next up: CC(C)(C)OC(=O)N[C@H]1CCCCC/C=C\[C@@H]2C[C@@]2(C(=O)NS(=O)(=O)C2CC2)NC(=O)[C@@H]2C[C@@H](OC(=O)N3Cc4cccc(F)c4C3)CN2C1=O
class 0

Others:
Could you please tell me the result logged for Cc1cnc(Nc2ccc(F)cc2Cl)nc1-c1c[nH]c(C(=O)N[C@H](CO)c2cccc(Cl)c2)c1 in this assay?
class 1

Note, next up: CCNC(=O)c1cc2c(-c3cc(OCCN4CCCC4)c(Cl)cc3Cl)nc(N)nc2s1
class 1

Note, next up: c1ccc2c(Oc3nc(Nc4ccc(N5CCOCC5)cc4)c4ncn(C5CCCCC5)c4n3)cccc2c1
class 0

Note, next up: CCC[C@H](Nc1nc(-c2ccc(NC(=O)NCC)c(OC)c2)ncc1C)c1cccnc1
class 1

Note, next up: Cc1ccccc1C(C(=O)NC1CCCC1)N(C(=O)Cn1cnc2ccccc21)c1cccc(F)c1 (stereo not drawn)
class 0

----------
# measurement_protocol: viability loss in pontine glioma line – cell-based, SU-DIPG-XVII, MIPE5.0, CellTiter-Glo, qHTS, dose response (AID 1347060);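 further: cells exposed to compound for 48 hours before viability readout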
# stated_conditions: CellTiter-Glo ATP luminescence
Records with an inconclusive call do not appear. Calls of active or inactive are those of the source. Cut-off not given; nearly all actives show AC50 up to about 26 µM.
Hi there, use one of these labels in your reply, thanks! active, inactive

Could you please tell me the result logged for C=C1CCC2[C@](C)(CO)C(O)CC[C@]2(C)C1C/C=C1/C(=O)OCC1O (stereo not given in full) in this assay?
active

Note, next up: CCN1CCN(Cc2ccc(Nc3ncc(F)c(-c4cc(F)c5nc(C)n(C(C)C)c5c4)n3)nc2)CC1
active

Note, next up: CC(C)(O)CC(=O)NCCn1ccc2ncnc(Nc3ccc(Oc4cccc(C(F)(F)F)c4)c(Cl)c3)c21
active

Others:
Could you please tell me the result logged for CCCCNc1ncc2c(-c3ccc(F)cc3)nn(CC3CCC(N)CC3)c2n1 (stereo not given) in this assay?
active

Note, next up: CN(C)CCN1C(=O)c2cccc3cc(N)cc(c23)C1=O
active

----------
# measurement_protocol: growth inhibition, single agents and combos, ICB984, cell-based, cisplatin or BGB combos, synergistic combos for chromothripsis tumors (AID 1671451);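 further: cells exposed for 96 hours before readout; 0% = vehicle DMSO and 100% = killing by high DMSO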
# stated_conditions: ICB984 medulloblastoma cells, drug combinations, at 0.5 µM, stronger effect = higher value
Quick reference: inhibition of the listed items.
Write the value in % as a bare number.

Give the measured inhibition of CCCCc1nc2cc(/C=C/C(=O)NO)ccc2n1CCN(CC)CC .
-30.3

Others:
Give the measured inhibition of Nc1ncnc2c1c(-c1cnc3[nH]ccc3c1)nn2C1CCCC1 .
-26.8

Note, next up: Cc1cn([C@@H]2O[C@H](CO)[C@@H](O)[C@@H]2F)c(=O)[nH]c1=O
-27.1

Note, next up: CN(C)c1ccc(C(=O)NCCCCCCC(=O)NO)cc1
-20.5

Note, next up: CN(C)CCN1C(=O)c2cccc3cc(N)cc(c23)C1=O
-22.6

Note, next up: COc1ccc(C(=O)C2CCN(CC(=O)N(Cc3nc4c(c(=O)[nH]3)COCC4)CC3CC3)CC2)cc1
-22.8

Note, next up: CN(C)C/C=C/C(=O)Nc1ccc(C(=O)Nc2cccc(Nc3ncc(Cl)c(-c4c[nH]c5ccccc45)n3)c2)cc1
-27.1

Note, next up: C[C@]12CCCN1CC1=NNC(=O)c3cc(F)cc4[nH]c2c1c34
-38.3

Note, next up: O=C(COc1cccc2c(=O)[nH]ccc12)c1ccccc1
-21.4

Note, next up: O=c1cc(N2CCOCC2)oc2c(-c3cccc4c3sc3ccccc34)cccc12
-40.4

----------
# measurement_protocol: JHH-DIPG-1 glioma cell viability, MIPE5.0 library, CellTiter-Glo luminescence, qHTS (AID 1347067);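 further: cells exposed to compound for 48 hours before readout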
# stated_conditions: JHH-DIPG-1 glioma viability, CellTiter-Glo ATP luminescence
Records with an inconclusive call do not appear. Calls of active or inactive are those of the source. Cut-off not given; nearly all actives show AC50 up to about 26 µM.
Hi there, use one of these labels in your reply, thanks! yes (1) (active), no (0) (inactive)

# example entries with known answers
Could you please tell me the result logged for Cc1onc(-c2ccc(F)cc2)c1COc1ccc(C(=O)N2CCS(=O)(=O)CC2)cn1 in this assay?
no (0)

Note, next up: Cn1cc(-c2[nH]c3cc(NC(=O)[C@H](N)C4CCCCC4)cc4c3c2C=NNC4=O)cn1
yes (1)

Note, next up: O=C(Nc1ccc(Oc2ccnc3[nH]ccc23)c(F)c1)c1cccn(-c2ccc(F)cc2)c1=O
no (0)

Note, next up: COc1ccc(Cc2ccc(NC(N)=O)cc2)cc1-c1cccc(Cl)c1
no (0)

Note, next up: C[C@@H](Oc1ccc2[nH]nc(/C=C/c3cnn(CCO)c3)c2c1)c1c(Cl)cncc1Cl
yes (1)

Note, next up: CCC(C)CCCCC(=O)N[C@@H](CCN)C(=O)NC(C(=O)N[C@H](CCN)C(=O)N[C@@H]1CCNC(=O)C([C@@H](C)O)NC(=O)[C@@H](CCN)NC(=O)[C@@H](CCN)NC(=O)[C@@H](CC(C)C)NC(=O)[C@H](Cc2ccccc2)NC(=O)[C@H](CCN)NC1=O)[C@@H](C)O (stereo partly drawn)
no (0)

Others:
Could you please tell me the result logged for CCOC(=O)[C@H]1O[C@@H]1C(=O)N[C@@H](CC(C)C)C(=O)NCCC(C)C in this assay?
no (0)

Note, next up: CCOc1cc2ncc(C#N)c(Nc3ccc(OCc4ccccn4)c(Cl)c3)c2cc1NC(=O)/C=C/CN(C)C
yes (1)

----------
Quick reference: fold change of the listed items.
# measurement_protocol: viability loss with induced miR-34 in A549 – imaging, A549 dox-inducible miR-34, nuclei and caspase counts, primary screen (AID 1347080)
# stated_conditions: A549 miR-34 inducible, Hoechst nuclei count, 48 h; measured here: relative caspase fold change +Dox/-Dox
Output spec: single numeric token, no unit.

Look over these answered cases.
Give the measured fold change of C[N+]1(C)[C@@H]2CC(OC(=O)C(O)(c3cccs3)c3cccs3)C[C@H]1[C@@H]1O[C@@H]12 (stereo not given in full) .
1.32

Note, next up: OC[C@H]1NC[C@H](O)[C@@H](O)[C@@H]1O
0.787

Note, next up: CCCCCCCCCCCCCCOc1ccc(C(=O)O)o1
1

Others:
Give the measured fold change of O=C(Nc1ccc(C(F)(F)F)cn1)N1CCN(c2ncccc2C(F)(F)F)CC1 .
1.39

Note, next up: CCCC1([C@@H](O)C/C=C/[C@H]2C(O)CC(=O)[C@@H]2CCCCCCC(=O)OC)CCC1 (stereo not given in full)
1.54
